Source: PubChem BioAssay (NCI)

# Test system: SNB-75 CNS
# test method notes: NCI-60 one-dose screen, 48 h (100 = growth as untreated, 0 = no growth, -100 = all killed)
# condition description: 10 µM unless noted
# Experimental: Growth inhibition of the SNB-75 human tumor cell line is measured as a screen for anti-cancer activity. Cells are grown in 96 well plates and exposed to the test compound for 48 hours. Compounds are tested at a single concentration, which is 10^-5 M for most compounds. The reported endpoint is percent growth (GI% or GIPRCNT), where numbers from 0 - 100% represent growth inhibition, and numbers from -100% - 0 represent cell death. For example, a value of 40 represents 60% growth inhibition. […]
The panel holds about 83,000 compounds, 20% with a hit somewhere; the sample as a whole holds those more often.
Hi! Just check whether growth is below 80%. Below gives 1, equal or above gives -1.

- compound: "CCOC(=O)C1=C(C)N=C2Sc3ccccc3N2C1c1ccccc1 (configuration not stated)"
  class name: -1
- compound: "Cc1cn(-c2cc(NC(=O)c3cncc(C#Cc4cnc5ccc(O[C@H]6CCOC6)nn45)c3)cc(C(F)(F)F)c2)cn1"
  class name: -1
- compound: "Cc1cc(-c2ccc3nc(N)sc3c2)nc2ccc3[nH]ncc3c12"
  class name: 1
- compound: "CC1OC(O[C@@H]2[C@H](O)C(CO)OC(O[C@H]3COC(O[C@H]4CC[C@]5(C)[C@H]6CC[C@]78OC[C@@]9(CCC(C)(C)C[C@H]97)[C@H](O)C[C@@]8(C)[C@]6(C)CC[C@H]5C4(C)C)[C@@H](OC4OC(CO)[C@@H](O)[C@@H](O)[C@@H]4O)[C@@H]3O)[C@H]2OC2OC[C@@H](O)[C@@H](O)[C@@H]2O)[C@@H](O)[C@@H](O)[C@H]1O (some centres not stated)"
  class name: 1
- compound: "O=C(NCCCCCCNC(=O)c1c2c(nc3ccccc13)-c1cccnc1SC2)c1c2c(nc3ccccc13)-c1cccnc1SC2"
  class name: 1
- compound: "COc1ccc(-c2ccnc3c(C#N)c(Nc4ccccc4)nn23)cc1OC"
  class name: 1
- compound: "CN1CCN(Cc2ccc(NC(=O)c3cncc(C#Cc4cnc5ccc(NC6CCOCC6)nn45)c3)cc2C(F)(F)F)CC1"
  class name: 1
- compound: "O=C1c2c(c3c4cccnc4[nH]c3c3ccc4ccccc4c23)C(=O)N1CCN1CCNCC1"
  class name: -1
- compound: "C/C=C/[C@@H]1C=C[C@@H]2C[C@H](C)CC[C@H]2[C@]1(C)/C(O)=C1/C(=O)[C@H](CO)N(C)C1=O"
  class name: 1
- compound: "Cc1ccc(Cc2cnc(NC(=O)/C(C#N)=C/c3ccc(-c4ccc(Cl)cc4)o3)s2)cc1"
  class name: -1
- compound: "CCN1C(=O)N(CC)C2SC(N/N=C/c3cccs3)=NC21 (configuration not stated)"
  class name: 1
- compound: "CC[C@H](C)[C@H]1NC(=O)[C@@H]([C@H](O)C(C)C)NC(=O)[C@@H](C)N(C)C(=O)[C@H](C)N(C)C(=O)[C@H](CC(C)C)NC(=O)[C@H](CC(C)C)N(C)C(=O)[C@H](C)N(C)C1=O"
  class name: 1
- compound: "C#C[C@]1(O)CC[C@H]2[C@@H]3CC=C4c5sc(Nc6nc(C)cc(OC)n6)nc5CC[C@]4(C)[C@H]3CC[C@@]21C"
  class name: 1
- compound: "Nc1nc(-c2cccc([N+](=O)[O-])c2)c(N=Nc2cccc(Cl)c2)s1"
  class name: 1
- compound: "C=C1C(=O)O[C@@H]2/C=C(/C)C3=CC(=O)[C@@](C)(C[C@H](OC(=O)/C(C)=C\\C)[C@@H]12)O3"
  class name: 1
- compound: "CCNC(=O)Oc1ccc(/C(=C(/C)c2ccc(Cl)cc2)c2ccc(OCCN3CCCC3)cc2)cc1"
  class name: -1
- compound: "CCC(CC)n1c(=O)c(SC2=NC3C(NN2)N(CC)C(=O)N3CC)c(C(=O)O)c2ccccc21 (configuration not stated)"
  class name: 1
- compound: "COc1ccc2c(c1)c(-c1nn3c(=O)cc(-c4ccccc4)nc3s1)cn2C"
  class name: 1
- compound: "CN(C)CCn1c2ccc(N)cc2c2nc3ccccc3nc21"
  class name: 1
- compound: "COc1ccc(NC(=O)[C@H](C)N)cc1C(=O)Nc1cccc(-c2cc(=O)c3c(OC)c(OC)c(OC)cc3o2)c1"
  class name: -1
- compound: "Cc1ccc(NC(=O)c2cccc(CN3CCN(C)CC3)c2)cc1Oc1ccc(-c2[nH]nc3ncnc(N)c23)cc1"
  class name: 1
- compound: "CC1(COc2ccc3ncc(C#Cc4cncc(C(=O)Nc5cc(C(C)(C)C)on5)c4)n3n2)COC1"
  class name: 1
- compound: "COC(=O)c1c(C(=O)OC)c2n(CC(=O)Nc3cccc4cccnc34)c3ccccc3n2c1C(=O)c1ccc(C)cc1"
  class name: -1
- compound: "NC(=O)C(=Cc1ccc(Cl)cc1)C(N)=O"
  class name: 1
- compound: "CCNCCCn1c2c(c3cc(OC)c(OC)cc3c1=O)C(=O)c1cc(OC)cnc1-2"
  class name: 1
- compound: "O=C(COc1ccc(C2SCC(=O)N2c2ccccc2)cc1)c1ccccc1 (configuration not stated)"
  class name: -1
- compound: "O=C(NNc1nc2cc(F)ccc2n2cncc12)c1cnccn1"
  class name: 1
- compound: "C=CCn1c(SCC(=O)Nc2cccc(C(=O)/C=C/c3cc(OC)c(OC)c(OC)c3)c2)nc2ccccc2c1=O"
  class name: 1
- compound: "O=C(NNc1nc2cc(F)c(F)cc2n2cccc12)c1ncccn1"
  class name: 1
- compound: "NS(=O)(=O)c1ccc(Nc2nc(N/N=C/c3ccc([N+](=O)[O-])cc3)nc(Nc3ccccc3)n2)cc1"
  class name: 1
- compound: "O=C1NC(=O)c2c1c1c3ccccc3ccc1c1[nH]c3ccccc3c21"
  class name: 1
- compound: "Cc1cc(O)c2c(c1)C(=O)C(c1c(C)cc3c(c1O)C(=O)C=CC3=O)=CC2=O"
  class name: -1
- compound: "O=c1[nH]c(CCl)nc2c1cnn2-c1ccccc1"
  class name: -1
- compound: "CNC(=O)c1c(NC(=O)c2ccc(F)cc2F)sc2c1CCC(=O)C2"
  class name: 1
- compound: "Oc1ccc(CSc2nnc(-c3ccc(Oc4ccccc4)cc3)o2)c2cccnc12"
  class name: 1
- compound: "COc1ccc(C(=O)n2cc(C=O)c3ccccc32)cc1"
  class name: -1
